- testedOn: F508delCFTR (Homo sapiens, UniProt P13569, DEL508-508)
- Construct: expressed in transfected cells; host or cells: CFBE41o- human lung-derived epithelial cells (CFBE4lo-F508delCFTR-HRP), doxycycline-inducible
- Sequence (P13569 with tags, fused parts or gaps DEL508-508): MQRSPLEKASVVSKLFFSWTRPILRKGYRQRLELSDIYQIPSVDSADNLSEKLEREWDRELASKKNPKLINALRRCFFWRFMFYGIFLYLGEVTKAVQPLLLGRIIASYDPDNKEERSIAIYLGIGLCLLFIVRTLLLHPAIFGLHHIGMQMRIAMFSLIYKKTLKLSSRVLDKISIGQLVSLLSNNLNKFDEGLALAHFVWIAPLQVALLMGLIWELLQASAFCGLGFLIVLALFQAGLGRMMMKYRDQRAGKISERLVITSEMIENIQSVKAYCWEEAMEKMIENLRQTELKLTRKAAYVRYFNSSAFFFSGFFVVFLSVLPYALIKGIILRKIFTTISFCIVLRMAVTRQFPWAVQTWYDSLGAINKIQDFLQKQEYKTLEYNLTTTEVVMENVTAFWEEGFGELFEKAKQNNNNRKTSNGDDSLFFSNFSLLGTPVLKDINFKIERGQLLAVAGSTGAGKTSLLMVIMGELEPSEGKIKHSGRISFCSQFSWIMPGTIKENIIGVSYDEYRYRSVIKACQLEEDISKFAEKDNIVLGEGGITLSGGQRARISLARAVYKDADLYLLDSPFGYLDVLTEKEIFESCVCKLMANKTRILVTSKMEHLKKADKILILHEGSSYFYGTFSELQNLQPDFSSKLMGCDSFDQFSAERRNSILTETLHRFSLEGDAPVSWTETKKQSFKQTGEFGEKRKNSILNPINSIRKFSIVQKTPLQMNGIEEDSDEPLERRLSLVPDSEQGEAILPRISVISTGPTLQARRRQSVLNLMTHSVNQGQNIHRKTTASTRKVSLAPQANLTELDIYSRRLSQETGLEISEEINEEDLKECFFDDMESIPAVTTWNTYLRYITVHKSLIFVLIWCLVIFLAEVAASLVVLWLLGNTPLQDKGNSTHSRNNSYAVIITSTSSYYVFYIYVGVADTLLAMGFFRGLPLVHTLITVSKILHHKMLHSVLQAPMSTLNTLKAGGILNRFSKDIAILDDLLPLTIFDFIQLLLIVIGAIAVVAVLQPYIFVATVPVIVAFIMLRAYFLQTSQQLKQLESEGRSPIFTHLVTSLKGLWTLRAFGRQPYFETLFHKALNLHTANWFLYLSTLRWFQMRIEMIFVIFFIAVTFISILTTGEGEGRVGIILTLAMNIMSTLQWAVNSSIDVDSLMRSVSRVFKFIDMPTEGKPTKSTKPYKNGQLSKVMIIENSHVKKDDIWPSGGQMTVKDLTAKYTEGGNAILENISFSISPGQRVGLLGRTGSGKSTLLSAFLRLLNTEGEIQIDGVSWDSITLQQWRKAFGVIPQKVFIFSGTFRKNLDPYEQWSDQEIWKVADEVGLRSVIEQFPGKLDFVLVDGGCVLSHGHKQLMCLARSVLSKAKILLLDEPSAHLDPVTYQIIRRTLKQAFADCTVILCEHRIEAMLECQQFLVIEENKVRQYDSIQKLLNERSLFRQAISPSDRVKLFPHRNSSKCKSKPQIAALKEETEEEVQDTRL
- assayRemarks: Cell Surface Expression-Horse Radish Peroxidase (CSE-HRP) Assay;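 also: co-corrector and positive control are both the same reference corrector at 2 µM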
- Assay type: cell-based
- experimentalContext: with co-corrector (2 μM); maximum at any tested concentration, normalized to on-plate positive control
readoutKind: Maximum % activity (with co-corrector)

1) COc1ccc(C(C)(C)C)cc1CN[C@@H]1[C@@H](C(C)(C)C)[C@H](C(=O)NS(C)(=O)=O)N(C(=O)C2CCCCC2)[C@@H]1c1ccccc1	++ (≥150 and <350)
2) COc1cccc([C@@H]2[C@H](NCc3cc(C(F)(F)F)ccc3OC)[C@@H](C(C)(C)C)[C@H](C(=O)O)N2C(=O)C2CCCCC2)n1 (racemic)	+++ (≥350)
3) COc1ccc(C(F)(F)F)cc1CN[C@H]1[C@H](C(C)(C)C)[C@@H](C(=O)O)N(C(=O)[C@@H]2CCC[C@@H](OC)C2)[C@H]1c1ccccc1	+++ (≥350)
4) COc1cc(Cl)cnc1N[C@@H]1[C@@H](C(C)(C)OC)[C@H](C(=O)O)N(C(=O)C2CCCCC2)[C@@H]1c1ccccc1 (racemic)	++ (≥150 and <350)

(Q) Using known records, supply Maximum % activity (with co-corrector) for COc1ccc(C(C)(C)C)cc1CN[C@H]1[C@H](C(C)(C)C)[C@@H](C(=O)O)N(C(=O)C2CCCCO2)[C@H]1c1ccccc1 (relative stereo)
(A) +++ (≥350)

(Q) Using known records, supply Maximum % activity (with co-corrector) for COc1ccc(Cl)cc1CN[C@@H]1[C@@H](C(C)(C)C)[C@H](C(=O)O)N(C(=O)OC(C)C)[C@@H]1c1ccccc1 (racemic)
(A) +++ (≥350)

(Q) Using known records, supply Maximum % activity (with co-corrector) for `COc1ccc(C23CC(C2)C3)cc1CN[C@H]1[C@H](C(C)(C)C)[C@@H](C(=O)O)N(C(=O)C2CCCCC2)[C@H]1c1cccnc1OC(F)F`
(A) +++ (≥350)

(Q) Using known records, supply Maximum % activity (with co-corrector) for `COc1ccc(C(C)(C)C)cc1CN[C@H]1[C@H](C(C)(C)C)[C@@H](C(=O)O)N(C(=O)c2cc(C#N)ccc2OC)[C@H]1c1ccccc1`
(A) +++ (≥350)

(Q) Using known records, supply Maximum % activity (with co-corrector) for `COc1ccc(C(C)(C)C)cc1CN[C@H]1[C@H](C(C)(C)C)[C@@H](C(=O)O)N(C(=O)[C@@H]2CCCCO2)[C@H]1c1cccnc1N(C)C`
(A) +++ (≥350)

(Q) Using known records, supply Maximum % activity (with co-corrector) for `CC(C)c1cc(C(F)(F)F)cc(N[C@H]2[C@H](C(C)(C)C)[C@@H](C(=O)O)N(C(=O)C3CCCCC3)[C@H]2c2ccccc2)n1`
(A) ++ (≥150 and <350)

(Q) Using known records, supply Maximum % activity (with co-corrector) for COc1ccc(C2CC3CCC2C3)cc1CN[C@H]1[C@H](C(C)(C)OC)[C@@H](C(=O)O)N(C(=O)C2CCCCC2)[C@H]1c1ccccc1 (some centres unmarked)
(A) +++ (≥350)

(Q) Using known records, supply Maximum % activity (with co-corrector) for `COc1ccc(C(C)(C)C)cc1CN[C@H]1[C@H](C23CC(C2)C3)[C@@H](C(=O)O)N(C(=O)OC(C)C)[C@H]1c1ccccc1F`
(A) +++ (≥350)

(Q) Using known records, supply Maximum % activity (with co-corrector) for `CC(C)(C)[C@H]1[C@H](NCc2ccccc2C(F)F)[C@H](c2ccccc2)N(C(=O)C2CCCCC2)[C@@H]1C(=O)O`
(A) ++ (≥150 and <350)

(Q) Using known records, supply Maximum % activity (with co-corrector) for `COc1ncc(C(F)(F)F)cc1CN[C@H]1[C@H](C(C)(C)C)[C@@H](C(=O)O)N(C(=O)[C@@H]2CCC[C@@H](OC)C2)[C@H]1c1ccccc1`
(A) +++ (≥350)

(Q) Using known records, supply Maximum % activity (with co-corrector) for `COc1ccc(C(F)(F)F)cc1CN[C@H]1[C@H](C(C)(C)C)[C@@H](C(=O)O)N(C(=O)C2CCCCC2)[C@H]1c1ncccc1Cl`
(A) ++ (≥150 and <350)

(Q) Using known records, supply Maximum % activity (with co-corrector) for `COc1ccc(C(C)(C)C)cc1CN[C@H]1[C@H](C(C)(C)C)[C@@H](C(=O)O)N(C(=O)OC(C)(C)C)[C@H]1c1cccnc1OC`
(A) +++ (≥350)

(Q) Using known records, supply Maximum % activity (with co-corrector) for `COc1cc(C(F)(F)F)ccc1CN[C@H]1[C@H](C(C)(C)C)[C@@H](C(=O)O)N(C(=O)[C@@H]2CCCC(F)(F)C2)[C@H]1c1ccccc1`
(A) +++ (≥350)

(Q) Using known records, supply Maximum % activity (with co-corrector) for COc1ccc(C(F)(F)F)cc1CN[C@H]1[C@H](C(C)(C)C)[C@@H](C(=O)O)N(C(=O)C2OC[C@@H]3CCC[C@H]23)[C@H]1c1ccccc1 (relative stereo)
(A) +++ (≥350)

(Q) Using known records, supply Maximum % activity (with co-corrector) for COc1ccc(C(C)(C)C)cc1CN[C@H]1[C@H](C(C)(C)C)[C@@H](C(=O)O)N(C(=O)[C@@H]2[C@@H](C(F)(F)F)[C@@H]3CC[C@H]2O3)[C@H]1c1cccnc1N(C)C (relative stereo)
(A) +++ (≥350)

(Q) Using known records, supply Maximum % activity (with co-corrector) for `COc1ccc2c(C)cc(N[C@H]3[C@H](C(C)(C)C)[C@@H](C(=O)O)N(C(=O)C4CCCCC4)[C@H]3c3ccccc3)nc2c1`
(A) ++ (≥150 and <350)

(Q) Using known records, supply Maximum % activity (with co-corrector) for COc1ccc(C(C)(C)C)cc1CN[C@H]1[C@H](C(C)(C)C)[C@@H](C(=O)O)N(C(=O)C2CCCCC2C)[C@H]1c1ccccc1 (some centres unmarked)
(A) +++ (≥350)

(Q) Using known records, supply Maximum % activity (with co-corrector) for `COc1cc(C(F)(F)F)ccc1CN[C@H]1[C@H](C(C)(C)C)[C@@H](C(=O)O)N(C(=O)C2CCCCC2)[C@H]1c1ccccc1OC(F)F`
(A) +++ (≥350)

(Q) Using known records, supply Maximum % activity (with co-corrector) for CO[C@@H]1CCC[C@@H](C(=O)N2[C@H](c3ccccc3)[C@H](Nc3cc(C(F)(F)F)cc(C)n3)[C@@H](C(C)(C)C)[C@@H]2C(=O)O)C1 (racemic)
(A) +++ (≥350)

These measurements were taken from patent US20180099931A1.
